# assayed-target: α-glucosidase (from baker's yeast)
# test: α-Glycosidase inhibitory activity (p-nitrophenyl α-D-glucopyranoside substrate)
# condition-description: α-glucosidase 0.2 U/ml, phosphate buffer pH 6.8, pNPG substrate, 37°C 15 min, absorbance 405 nm
pIC50: −log10 of the molar value.
I'd appreciate it if you could supply pIC50 values for the items below.

In the examples that follow, each entry is paired with its recorded pIC50.
>  <compound>
CC(O)(CCC(=O)O)CCc1cc(C(=O)O)ccc1O (stereo not shown) [Compound 1, cladoslide A]

>  <measured-result>
3.49

$$$$
>  <compound>
CC(C)C[C@H](NC(=O)c1nc(C(=O)O)cc2c1[nH]c1ccccc12)C(=O)O

>  <measured-result>
< 3.00

$$$$

Please look at the items below and tell me pIC50 for each one, in order.
1. C[C@H](O)CCCCC[C@H](O)[C@@H]1C=CC(=O)O1 [Compound 7, (4S,5S,11S)-iso-cladospolide B]
2. C[C@@H](O)CCCCC[C@H](O)[C@@H]1C=CC(=O)O1 [Compound 6, (4S,5S,11R)-iso-cladospolide B]
3. C[C@@H](O)CCCCC[C@H](O)[C@H]1C=CC(=O)O1 [Compound 8, (4R,5S,11R)-iso-cladospolide B]

[out]
1: < 3.00; 2: < 3.00; 3: < 3.00

State recorded pIC50 for all listed compounds.
1. COC(=O)CCC(C)(O)CCc1cc(C(=O)O)ccc1O (stereo not shown) [Compound 2, cladoslide B]
2. CC(=O)NCC(=O)c1c[nH]c2ccccc12

[out]
["< 3.00", 3.77]

---

Provide the reported IC50 at 36 h of each item.
# test: Cytotoxicity by the MTT method, K562
# Type: cell-based
# condition-description: human, K562 cells (leukemia cell line), 36 h incubation with compound

Study these solved cases before continuing.
>  <compound>
COC(=O)CCC(C)(O)CCc1cc(C(=O)O)ccc1O (centres unmarked) [Compound 2, cladoslide B]

>  <IC50 at 36 h>
> 100 µM

$$$$
>  <compound>
C[C@@H](O)CCCCC[C@H](O)[C@H]1C=CC(=O)O1 [Compound 8, (4R,5S,11R)-iso-cladospolide B]

>  <IC50 at 36 h>
> 100 µM

$$$$
>  <compound>
C[C@@H](O)CCCCC[C@H](O)[C@@H]1C=CC(=O)O1 [Compound 6, (4S,5S,11R)-iso-cladospolide B]

>  <IC50 at 36 h>
> 100 µM

$$$$
>  <compound>
COc1cccc2c1C(=O)c1c(O)c3c(c(O)c1C2=O)C[C@@](O)(C(=O)CO)C[C@@H]3O[C@H]1C[C@H](N)[C@H](O)[C@H](C)O1 [Adriamycin, reference compound]

>  <IC50 at 36 h>
0.1 µM

$$$$
>  <compound>
CC(=O)NCC(=O)c1c[nH]c2ccccc12

>  <IC50 at 36 h>
> 100 µM

$$$$

Give IC50 at 36 h for each of the items listed below.
1. CC(C)C[C@H](NC(=O)c1nc(C(=O)O)cc2c1[nH]c1ccccc12)C(=O)O
2. C[C@H](O)CCCCC[C@H](O)[C@@H]1C=CC(=O)O1 [Compound 7, (4S,5S,11S)-iso-cladospolide B]

[out]
1: > 100 µM; 2: > 100 µM

[in] Which IC50 at 36 h is reported for this compound? CC(O)(CCC(=O)O)CCc1cc(C(=O)O)ccc1O (centres unmarked) [Compound 1, cladoslide A]
[out] 13.1 µM
